Cited source for all entries: patent US20260258035A1

target: PARG (Homo sapiens); test: Biochemical assay (PARG, TFMU-ADPr substrate); conditions: PARG, TFMU-ADPr substrate
Known IC50 of a selection of compounds
Numeric answer only, unit nM assumed.

Some solved cases for reference:
{"columns": ["compound", "unit-symbol", "IC50"],
 "data": [
  ["N#CC1(NS(=O)(=O)c2cc(N3CCC(O)(C(F)(F)F)CC3)c3cnc(-c4nnc(C(F)F)s4)n3c2)CC1", "nM", 115],
  ["CN1CC[C@@H]1C(=O)N1CCN(c2cc(S(=O)(=O)NC3(C)CC3)cn3c(-c4nnc(C(F)F)s4)ncc23)CC1", "nM", 1.03],
  ["[2H]C([2H])([2H])OC1(C(=O)N2CCN(c3cc(S(=O)(=O)NC4(C)CC4)cn4c(-c5nnc(C(F)(F)F)s5)ncc34)CC2)CC1", "nM", 0.15]
]}

Ask: Given the compound `N#CC1(NS(=O)(=O)c2cc(N3CCC(n4ccnn4)CC3)c3cnc(-c4nnc(C(F)(F)F)s4)n3c2)CC1` , what is its reported IC50?
Reply: 39.8

Ask: Given the compound `COC[C@H]1CN(c2cc(S(=O)(=O)NC3(C)COC3)cn3c(-c4nnc(C(F)F)s4)nc(Cl)c23)C[C@H](C)N1` , what is its reported IC50?
Reply: 21.9

Ask: Given the compound `C#CC1(NS(=O)(=O)c2cc(N3CCN(C(=O)C(C)C)CC3)c3nnc(-c4nnc(C(F)F)s4)n3c2)COC1` , what is its reported IC50?
Reply: 8.15

Ask: Given the compound `N#CC1(NS(=O)(=O)c2cc(N3CCC(OC(F)(F)F)CC3)c3cnc(-c4nnc(C(F)F)s4)n3c2)CC1` , what is its reported IC50?
Reply: 13.2

Ask: Given the compound `CC(C)C(=O)N1CCN(c2cc(S(=O)(=O)NC3(C)COC3)cn3c(-c4nnc(C(F)F)s4)ncc23)CC1` , what is its reported IC50?
Reply: 0.96

Ask: Given the compound `C=CC(=O)N1CC=C(c2cnc3c(N4CCN(C(=O)C(C)C)CC4)cc(S(=O)(=O)NC4(C#N)CC4)cn23)C1` , what is its reported IC50?
Reply: 40

Ask: Given the compound `CC(C)(F)C(=O)N1CCN(c2cc(S(=O)(=O)NC3(C#N)CC3)cn3c(-c4nnc(C(F)(F)F)s4)ncc23)CC1` , what is its reported IC50?
Reply: 13.8

Ask: Given the compound `CC(C)C(=O)N1CCN(c2cc(S(=O)(=O)NC3(C)CC3)cn3c(-c4nnc(C(F)F)s4)ncc23)C[C@H]1CO` , what is its reported IC50?
Reply: 0.44

Ask: Given the compound `Cc1ncc(-c2cnc3c(N4CCN(C(=O)C(C)C)CC4)cc(S(=O)(=O)NC4(C#N)CC4)cn23)s1` , what is its reported IC50?
Reply: 1540

Ask: Given the compound `CC(C)C(=O)N1CCN(c2cc(S(=O)(=O)NC3(C#N)CC3)cn3c(-c4nnc(C(F)F)s4)nnc23)CC1` , what is its reported IC50?
Reply: 78.6

----------
target: PARG (Homo sapiens, UniProt Q86W56); experiment: Biochemical assay (PARG, TFMU-ADPr substrate); conditions: PARG, TFMU-ADPr substrate
Sequence (Q86W56 whole entry): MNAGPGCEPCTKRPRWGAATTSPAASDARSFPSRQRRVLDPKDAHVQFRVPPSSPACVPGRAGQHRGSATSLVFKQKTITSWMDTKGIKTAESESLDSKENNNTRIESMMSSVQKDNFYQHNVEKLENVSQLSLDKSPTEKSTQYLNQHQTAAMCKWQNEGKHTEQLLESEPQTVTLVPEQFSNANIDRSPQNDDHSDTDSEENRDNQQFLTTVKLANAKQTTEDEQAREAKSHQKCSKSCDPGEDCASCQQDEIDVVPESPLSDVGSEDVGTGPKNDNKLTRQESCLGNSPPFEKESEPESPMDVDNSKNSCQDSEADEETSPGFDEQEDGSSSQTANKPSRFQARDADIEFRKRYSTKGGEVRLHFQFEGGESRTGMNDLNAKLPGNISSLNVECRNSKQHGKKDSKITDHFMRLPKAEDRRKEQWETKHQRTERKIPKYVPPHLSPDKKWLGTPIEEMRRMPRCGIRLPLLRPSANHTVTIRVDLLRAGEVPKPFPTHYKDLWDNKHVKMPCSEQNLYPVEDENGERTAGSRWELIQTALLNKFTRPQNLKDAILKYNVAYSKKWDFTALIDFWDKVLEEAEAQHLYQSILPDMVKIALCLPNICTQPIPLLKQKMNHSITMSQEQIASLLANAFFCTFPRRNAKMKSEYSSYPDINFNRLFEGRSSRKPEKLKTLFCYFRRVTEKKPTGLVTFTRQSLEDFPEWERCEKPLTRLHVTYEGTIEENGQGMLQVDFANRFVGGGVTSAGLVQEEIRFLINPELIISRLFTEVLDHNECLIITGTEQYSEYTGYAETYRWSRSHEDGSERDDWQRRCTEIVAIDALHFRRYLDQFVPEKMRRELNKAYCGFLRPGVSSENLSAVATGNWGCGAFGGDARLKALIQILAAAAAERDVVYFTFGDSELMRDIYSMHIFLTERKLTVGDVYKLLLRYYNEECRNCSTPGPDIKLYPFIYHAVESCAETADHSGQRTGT
metric: IC50 (nM)
Numeric answer only, unit nM assumed.

Ask: Given the molecule COCC1CN(c2cc(S(=O)(=O)NC3(C)COC3)cn3c(-c4nnc(C(F)(F)F)s4)ncc23)CCN1 (centres unmarked) , what is its reported IC50?
Reply: 15.8
